- Test system: Trichomonas vaginalis G3 trophozoites
- test_conditions: parasite screen at 1 µg/mL, replicate 2
Note to self: values exactly at 10% are true. So T.vaginalis_%inb_Rep2 at or above 10% is true, below is false.

CC[C@H](C)[C@@H]1NC(=O)C(C(C)=O)=C1O ... true
COC(=O)C1=CO[C@@H](C)[C@@H]2CN3CCc4c([nH]c5cc(OC)c(OC)cc45)[C@H]3C[C@H]12 ... true
C/C=C/C1=CC(=O)[C@@H](O)[C@@H]1O ... true

Let's switch to this compound now.
**Query** Can CC(=O)OC[C@]12C[C@H](OC(=O)CC(C)C)C(C)=C[C@H]1O[C@@H]1[C@H](O)[C@@H](OC(C)=O)[C@@]2(C)[C@]12CO2 be said to have T.vaginalis_%inb_Rep2 at or above 10%?
**Result** false
